Data provenance: ChEMBL document CHEMBL1208736

runDescription: Cytotoxicity against human C8166 cells after 3 days by MTT assay
Format: cell-based
endpointName: CC50 at 72 h (µg/mL)
Just the number in µg/mL, nothing appended.

Query: Provide measured CC50 at 72 h value, entry: N#Cc1c(Cl)c(Cl)c2nc(N)nc(N)c2c1Cl
Result: 14.3

Query: Provide measured CC50 at 72 h value, entry: N#Cc1c(Sc2ccccc2)c(Cl)c2nc(N)nc(N)c2c1Sc1ccccc1
Result: 46.8

Query: Provide measured CC50 at 72 h value, entry: N#Cc1c(F)c(Cl)c2nc(N)nc(N)c2c1F
Result: 3.9

Query: Provide measured CC50 at 72 h value, entry: N#Cc1c(Nc2ccccc2)c(Cl)c2nc(N)nc(N)c2c1F
Result: 6.3

Query: Provide measured CC50 at 72 h value, entry: N#Cc1c(Nc2ccccc2)c(F)c2nc(N)nc(N)c2c1F
Result: 6.9

Query: Provide measured CC50 at 72 h value, entry: N#Cc1c(F)c(F)c2nc(N)nc(N)c2c1F
Result: 36.4

* * *

Test system: HepG2
runDescription: Cytotoxicity against human HepG2 cells by MTT assay
Assay type: functional, cell-based
Please note: IC50 exactly at 4 µg/mL is Not met. Only values below 4 µg/mL get Met.

Query: Does the reported IC50 of CCCCNc1c(C#N)c(NCCCC)c2c(N)nc(N)nc2c1Cl stay below 4 µg/mL?
Result: Met

Query: Does the reported IC50 of CCN(CC)c1c(C#N)c(F)c2c(N)nc(N)nc2c1Cl stay below 4 µg/mL?
Result: Met

Query: Does the reported IC50 of N#Cc1c(Sc2ccccc2)c(Cl)c2nc(N)nc(N)c2c1Sc1ccccc1 stay below 4 µg/mL?
Result: Not met

Query: Does the reported IC50 of N#Cc1c(N)c(Cl)c2nc(N)nc(N)c2c1Cl stay below 4 µg/mL?
Result: Met

Query: Does the reported IC50 of CCCSc1c(C#N)c(SCCC)c2c(N)nc(N)nc2c1Cl stay below 4 µg/mL?
Result: Not met

Query: Does the reported IC50 of N#Cc1c(NCc2ccccc2)c(F)c2nc(N)nc(N)c2c1F stay below 4 µg/mL?
Result: Not met

Query: Does the reported IC50 of N#Cc1c(F)c(Cl)c2nc(N)nc(N)c2c1F stay below 4 µg/mL?
Result: Not met

Query: Does the reported IC50 of N#Cc1c(Nc2ccccc2)c(Cl)c2nc(N)nc(N)c2c1F stay below 4 µg/mL?
Result: Not met

Query: Does the reported IC50 of N#Cc1c(NCc2ccccc2)c(Cl)c2nc(N)nc(N)c2c1NCc1ccccc1 stay below 4 µg/mL?
Result: Not met

Query: Does the reported IC50 of CC(C)(C)Nc1c(C#N)c(F)c2c(N)nc(N)nc2c1Cl stay below 4 µg/mL?
Result: Not met

Query: Does the reported IC50 of CCCCNc1c(C#N)c(NCCCC)c2c(N)nc(N)nc2c1F stay below 4 µg/mL?
Result: Met

* * *

runDescription: Therapeutic index, ratio of CC50 for human C8166 cells to EC50 for HIV1 3B
Format: cell-based
measurementContext: read-out: Ratio CC50/EC50
Please note: selectivity ratio exactly at 20 is not met. Only values below 20 get met.

Query: Does the reported selectivity ratio of N#Cc1c(Nc2ccccc2)c(F)c2nc(N)nc(N)c2c1F stay below 20?
Result: met

Query: Does the reported selectivity ratio of N#Cc1c(Nc2ccccc2)c(Cl)c2nc(N)nc(N)c2c1F stay below 20?
Result: met

Query: Does the reported selectivity ratio of Cc1cn([C@H]2C[C@H](N=[N+]=[N-])[C@@H](CO)O2)c(=O)[nH]c1=O stay below 20?
Result: not met

Query: Does the reported selectivity ratio of N#Cc1c(F)c(F)c2nc(N)nc(N)c2c1F stay below 20?
Result: not met

Query: Does the reported selectivity ratio of N#Cc1c(F)c(Cl)c2nc(N)nc(N)c2c1F stay below 20?
Result: met

Query: Does the reported selectivity ratio of N#Cc1c(Sc2ccccc2)c(Cl)c2nc(N)nc(N)c2c1Sc1ccccc1 stay below 20?
Result: met

Query: Does the reported selectivity ratio of CCCSc1c(C#N)c(SCCC)c2c(N)nc(N)nc2c1Cl stay below 20?
Result: met

Query: Does the reported selectivity ratio of N#Cc1c(Cl)c(Cl)c2nc(N)nc(N)c2c1Cl stay below 20?
Result: met
